measured on: T1, mouse IL-15 (mIL-15+mIL-15Rα-mFc1 complex) (mouse (Mus musculus), UniProt P48346 49-162)
T1 construct: also called mIL-15+mIL-15Rα-mFe1 complex
test method notes: ELISA, complex coated at 1 µg/mL, anti-human IgG-HRP detection

# binder, binding result
records = [
    ("anti-human IL-15 monoclonal antibody R1A3 (antibody, V domains shown, Found from a fully human Fab phage library) VH: EVQLVQSGAEVKKPGESLKISCKVSGYFFTTYWIGWVRQMPGKGLEYMGIIYPGDSDTRYSPSFQGQVTISADKSISTAYLQWSSLKASDTAMYYCARGGHWNAFDFWGQGTLVTVSS VL: EIVLTQSPGTLSLSPGERATLSCRASQSVSSSYLAWYQQKPGQAPRLLIYGASRRATGIPDRFSGSGSGTDFTLTISRLEPEDFAVYYCQQFDASQTFGQGTKLEISR", "no binding"),
    ("anti-human IL-15 monoclonal antibody R2H2VH+R22F11VK (antibody, V domains shown, Mutant of R1A3; it was captured by anti-human IgG (Fc) in SPR and detected with anti-human IgG in ELISA, so a human Fc is implied; also called R2H2VH+R22FVK) VH: EVQLVQSGAEVKKPGESLKISCKVSGYFFTTYWIGWVRQMPGKGLEYMGIIYPGDSDTRYSPSFQGQVTISADKSISTAYLQWSSLKASDTAMYYCARGGHWNSFDTWGQGTLVTVSS VL: EIVLTQSPGTLSLSPGERATLSCRASQSVIGSYLAWYQQKPGQAPRLLIYSASKLASGIPDRFSGSGSGTDFTLTISRLEPEDFAVYYCQQHYSTPGTFGQGTKVEIK", "no binding"),
    ("anti-human IL-15 monoclonal antibody R26H10 (antibody, V domains shown, Humanized mutant of R6E11 with a fully human light chain; captured by anti-human IgG (Fc) in SPR and detected with anti-human IgG in ELISA) VH: QVTLKESGPVLVKPTETLTLTCTVSGFSLTTYAVHWIRQPPGKALEWLGVIWGAGSTDYNPSFMSRLTISKDTSKSQVVLTMTNMDPVDTATYYCAKNAAYYVMDYWGQGTTVTVSS VL: EIVLTQSPGTLSLSPGERATLSCRASQSVIYSYLAWYQQKPGQAPRLLIYAASKLASGIPDRFSGSGSGTDFTLTISRLEPEDFAVYYCQQRASYPLTFGQGTKVEIK", "no binding"),
    ("anti-human IL-15 monoclonal antibody R4G4VH+R22F11VK (antibody, V domains shown, Mutant of R1A3; it was captured by anti-human IgG (Fc) in SPR and detected with anti-human IgG in ELISA, so a human Fc is implied; also called R4G4VH+R22FVK) VH: EVQLVQSGAEVKKPGESLKISCKVSGYFFTTYWIGWVRQMPGKGLEYMGIIYPGDSDTRYSPSFQGQVTISADKSISTAYLQWSSLKASDTAMYYCARGGHWNAFDIWGQGTLVTVSS VL: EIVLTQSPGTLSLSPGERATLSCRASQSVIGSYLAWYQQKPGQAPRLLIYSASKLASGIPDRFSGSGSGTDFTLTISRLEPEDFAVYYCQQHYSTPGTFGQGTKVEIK", "no binding"),
]
